one-hybrid fitness for binding parS DNA values by entry
B1: Caulobacter ParB omega fusion; a variant is named by its letters at X, in order, B8GW30 (parent)
chain: MESVVVGEPGMSEGRRGLGRGLSALLGEVDAAPAQAPGEQLGGSREAPIEILQRNPDQPRRTFREEDLEDLSNSIREKGVLQPILVRPSPDTAGEYQIVAGERAWRAAQRAGLKTVPIMVRELDDLAVLEIGIIENVQRADLNVLEEALSYKVLMEKFERTQENIAQTIGKSXSHVANXMRLLXLPDEVQSYLVSGELTAXHARAIAAAADPVALAKQIIEGGLSVRETEALARKAPNLSAGKSKGGRPPRVKDTDTQALESDLSSVLGLDVSIDHRGSTGTLTITYATLEQLDDLCNRLTRGI

Variants of: B1
Experiment: one-hybrid fitness for binding parS DNA (scaled: cognate 1, non-cognate 0); higher = stronger binding
Conditions: with parS DNA site
Over roughly 81,000 sequences, “one-hybrid fitness for binding parS DNA” has its median near -0.17; the highest 2% begin near 0.51. Shown is part of a subset that was picked to be rich in the highest values.

sequence_change	one-hybrid fitness for binding parS DNA
YVRR	≤ 0.2
RCSE	≤ 0.2
APDT	≤ 0.2
RSHT	0.876
RTHK	≤ 0.2

one-hybrid fitness for binding parS DNA for NRPF is ≤ 0.2

Kindly note the recorded one-hybrid fitness for binding parS DNA for DEPC , which is ≤ 0.2

The reported one-hybrid fitness for binding parS DNA of the variant RHFC was 0.799

Please fill in: one-hybrid fitness for binding parS DNA reported for QVAS = ≤ 0.2

one-hybrid fitness for binding parS DNA for EWRT is ≤ 0.2

one-hybrid fitness for binding parS DNA measured on RHAR = ≤ 0.2

Values compiled from a collection of fitness landscapes (doi:10.1016/j.celrep.2020.107928).
